System: 276233-004-R-J1-PDC KRAS spheroids with HUVEC/MSC, viability;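 further: cells exposed to agents for seven days before viability read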
Assay: Anticancer human tumor 276233-004-R-J1-PDC patient-derived colon adenocarcinoma cell line growth inhibition [KRAS2]
Details: second compound 3.16 µM; first compound 0.1 µM; hits give low values
// boundary case: viability, T/C equal to 80% maps to F; strictly smaller maps to T

>  <compound>
CCN1CCN(Cc2ccc(Nc3ncc(F)c(-c4cc(F)c5nc(C)n(C(C)C)c5c4)n3)nc2)CC1 + C=CC(=O)N1CCN(c2nc(OCC3CCCN3C)nc3c2CCN(c2cccc4cccc(C)c24)C3)CC1CC#N

>  <assaySystem>
276233-004-R-J1-PDC KRAS spheroids with HUVEC/MSC, viability;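 further: cells exposed to agents for seven days before viability read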

>  <label>
T

$$$$
>  <compound>
CC1(C)CCC(CN2CCN(c3ccc(C(=O)NS(=O)(=O)c4ccc(NCC5CCOCC5)c([N+](=O)[O-])c4)c(Oc4cnc5[nH]ccc5c4)c3)CC2)=C(c2ccc(Cl)cc2)C1 + COc1cc2nc(C)nc(NC(C)c3cc(N)cc(C(F)(F)F)c3)c2cc1OC1CCOC1

>  <assaySystem>
276233-004-R-J1-PDC KRAS spheroids with HUVEC/MSC, viability;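 further: cells exposed to agents for seven days before viability read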

>  <label>
F

$$$$
>  <compound>
Cn1nccc1Nc1nccc(-c2cc3c(s2)C(C)(C)N(CCN2CCOCC2)C3=O)n1 + C=CC(=O)N1CCN(c2nc(OCC3CCCN3C)nc3c2CCN(c2cccc4cccc(C)c24)C3)CC1CC#N

>  <assaySystem>
276233-004-R-J1-PDC KRAS spheroids with HUVEC/MSC, viability;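 further: cells exposed to agents for seven days before viability read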

>  <label>
T

$$$$
>  <compound>
CCNC(=O)CC1N=C(c2ccc(Cl)cc2)c2cc(OC)ccc2-n2c(C)nnc21 (stereo not given) + C=CC(=O)N1CCN(c2nc(=O)n(-c3c(C)ccnc3C(C)C)c3nc(-c4c(O)cccc4F)c(F)cc23)C(C)C1

>  <assaySystem>
276233-004-R-J1-PDC KRAS spheroids with HUVEC/MSC, viability;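 further: cells exposed to agents for seven days before viability read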

>  <label>
F

$$$$
